// provenance: patent US6576639B1

- TARGET DESC: farnesyl protein transferase (Homo sapiens, UniProt P49354+P49356)
- PROCEDURE SUMMARY: FPT IC50 (inhibition of farnesyl protein transferase, in vitro enzyme assay, per WO 95/10516)
- CONDITION NOTES: in vitro enzyme assay
- Method: FPT IC50 (inhibition of farnesyl protein transferase, in vitro enzyme assay) was determined following the assay procedures described in WO 95/10516, published Apr. 20, 1995. GGPT IC50 (inhibition of geranylgeranyl protein transferase, in vitro enzyme assay), COS Cell IC50 (Cell-Based Assay), Cell Mat Assay, and anti-tumor activity (in vivo anti-tumor studies) could be determined by the assay procedures described in WO 95/10516. […]
RESULT TYPE: IC50 (nM)

Below, 5 compounds whose answers are already recorded.
COMPOUND	UNITS OF MEASURE	IC50
NC(=O)N1CCC(CC(=O)N2CCC([C@H]3c4ccc(Cl)cc4CCc4cc(Br)c[n+]([O-])c43)CC2)CC1	nM	174
NC(=O)N1CCC(CC(=O)N2CCC([C@@H]3c4ccc(Cl)cc4CCc4cc(Br)c[n+]([O-])c43)CC2)CC1	nM	35
O=C(Cc1cc[n+]([O-])cc1)N1CCN([C@@H]2c3ccc(Cl)cc3CCc3cc(Br)c[n+]([O-])c32)CC1	nM	6.3
NC(=O)N1CCC(CC(=O)N2CCN(C3c4ccc(Cl)cc4CCc4cc(Br)c[n+]([O-])c43)CC2)CC1 (racemic)	nM	23
O=C(Cc1cc[n+]([O-])cc1)N1CCC([C@@H]2c3ccc(Cl)cc3C=Cc3cc(Br)c[n+]([O-])c32)CC1	nM	19

(1) NC(=O)N1CCC(CC(=O)N2CCC([C@@H]3c4c(Br)cc(Cl)cc4CCc4cc(Br)c[n+]([O-])c43)CC2)CC1
(2) NC(=O)N1CCC(CC(=O)N2CCC([C@H]3c4ccc(Cl)c(Br)c4CCc4cc(Br)c[n+]([O-])c43)CC2)CC1
(3) O=C(Cc1cc[n+]([O-])cc1)N1CCC([C@H]2c3ccc(Cl)c(Br)c3CCc3cc(Br)c[n+]([O-])c32)CC1
(4) O=C(Cc1cc[n+]([O-])cc1)N1CCC([C@@H]2c3c(Br)cc(Cl)cc3CCc3cc(Br)c[n+]([O-])c32)CC1
(5) NC(=O)N1CCC(CC(=O)N2CCN([C@@H]3c4ccc(Cl)cc4CCc4cc(Br)c[n+]([O-])c43)CC2)CC1
### Prompt Ordering criterion: IC50; begin with the maximum. # respond with the labels, arranged in the requested order
### Response 3, 2, 5, 1, 4
(3: 28 nM, 2: 18 nM, 5: 12 nM, 1: 1.4 nM, 4: 0.7 nM)

* * *

- Tested on: COS Cell
- PROCEDURE SUMMARY: COS Cell IC50 (Cell-Based Assay, per WO 95/10516)
RESULT TYPE: pIC50
Notebook: values listed as pIC50 are -log10 of the concentration (mol/L).

Below, 2 compounds whose answers are already recorded.
MOL	NUMERIC RESULT
O=C(Cc1cc[n+]([O-])cc1)N1CCN([C@@H]2c3ccc(Cl)cc3CCc3cc(Br)c[n+]([O-])c32)CC1	7.07
O=C(Cc1cc[n+]([O-])cc1)N1CCC([C@@H]2c3c(Br)cc(Cl)cc3CCc3cc(Br)c[n+]([O-])c32)CC1	7.94

### Prompt What measured pIC50 goes with `NC(=O)N1CCC(CC(=O)N2CCC([C@@H]3c4c(Br)cc(Cl)cc4CCc4cc(Br)c[n+]([O-])c43)CC2)CC1` ?
### Response 8.05

* * *

- TARGET DESC: human FPT (Homo sapiens, UniProt P49354+P49356)
- Construct: made in house; host or cells: Baculovirus/Sf-9
- PROCEDURE SUMMARY: FPT pM IC50 Assay
- Format: biochemical
- CONDITION NOTES: 30 pM human FPT, biotin-CVLS substrate, 37° C., 1 hour
RESULT TYPE: IC50 (pM)
Write it as a number; the unit pM goes unstated.

### Prompt What measured IC50 goes with `O=C(Cc1cc[n+]([O-])cc1)N1CCN([C@@H]2c3ccc(Cl)cc3CCc3cc(Br)c[n+]([O-])c32)CC1` ?
### Response 440
